Data provenance: PubChem BioAssay (NCI)

Test system: COLO 205 colon
Protocol Text: NCI-60 one-dose screen, 48 h (100 = growth as untreated, 0 = no growth, -100 = all killed)
Assay Setup: 10 µM unless noted
About 83,000 compounds went through this panel and 20% of them were active in at least one assay; those are over-represented in the sample as a whole. The source made the active and inactive calls. The calls were made as follows: active = growth percent below 10; inactive = the rest.
Form field: growth (one value per entry).

Compound	growth
COc1ccc(C(=O)n2cc(C=O)c3ccccc32)cc1	114% (inactive)
COc1cc(/C=C/C(=O)c2ccc(NC(=O)COc3cccc4cccnc34)cc2)cc(OC)c1OC	100% (inactive)
Cc1ccc(C2CC(c3ccc(Nc4nc(NCCO)nc(Nc5ccc(Cl)cc5)n4)cc3)=Nc3c(N)nc(N)nc3N2)cc1 (stereo not given)	29.9% (inactive)
Cc1cc(NS(=O)(=O)c2ccc(-c3cnc(C4CC4)o3)cc2)ccc1I	22.9% (inactive)
NCCN1CCN(c2nc(-c3ccccc3)nc3nc(-c4ccccc4)oc23)CC1	-44.7% (active)
COc1ccc(Oc2ccc(C3CC(c4cc(OC)c(OC)c(OC)c4)=NN3C(C)=O)cc2)cc1 (stereo not given)	11.1% (inactive)
COc1cc(/C=N/n2cnc3oc(-c4ccccc4)cc3c2=N)cc(CN2CCN(C)CC2)c1O	80.9% (inactive)
CS(=O)(=O)c1nccc(-c2c(-c3ccc(F)c(OCCc4ccc(F)cc4)c3)nc3sccn23)n1	86.9% (inactive)
O=S(=O)(Nc1ccc(-n2cnc3cc(-c4ccc(O)cc4)ccc32)cc1)C1CC1	123% (inactive)
CCN1C(=O)N(CC)C2SC(N/N=C/c3ccccc3)=NC21 (stereo not given)	-43.5% (active)

---

System: MDA-MB-231 breast
Protocol Text: NCI-60 one-dose screen, 48 h
Assay Setup: 10 µM unless noted
Compounds without any hit were thinned out: in the full panel of roughly 83,000, 20% have a hit. Calls of active or inactive are those of the source. Rule for the calls: active = growth percent below 10; inactive = the rest.
Possible outcomes: label 1 (active), label 0 (inactive)

Compound	Class Assignment
O=C1[C@H]2Cc3c([nH]c4ccccc34)[C@@H](c3ccc(Cl)cc3)N2C(=O)CN1C1CCN(Cc2c(Cl)cccc2Cl)CC1	label 0
CS(=O)(=O)c1nccc(-c2c(-c3ccc(F)c(OCCc4ccccc4)c3)nc3sccn23)n1	label 0
CCN(CC)CCN1C(=O)c2c(c3c4cc(Br)ccc4[nH]c3c3ccc4ccccc4c23)C1=O	label 1
NS(=O)(=O)c1ccc(Nc2nc(N/N=C/c3ccc(C(F)(F)F)cc3)nc(Nc3ccccc3)n2)cc1	label 0
C=CCn1c(SCC(=O)Nc2cccc(C(=O)/C=C/c3ccccc3Cl)c2)nc2ccccc2c1=O	label 0
Cc1csc(Nc2cccc(Nc3nc(C)cs3)c2)n1	label 0
COc1ccc(Cn2cc3c(c2-c2cc(OC)c(OC)c(OC)c2)CCCc2cnoc2-3)cc1N	label 0
CN1CCN(Cc2ccc(NC(=O)c3cncc(C#Cc4cnc5ccc(NC6CCOCC6)nn45)c3)cc2C(F)(F)F)CC1	label 1
O=C1NC(=O)c2c1c1c3ccccc3ccc1c1[nH]c3ccccc3c21	label 0
CC1(C)CC[C@]2(C(=O)O)CC[C@]3(C)C(=CCC4[C@@]5(C)C[C@@H](O)[C@@H]6OC(c7cccc([N+](=O)[O-])c7)OC[C@@]6(C)C5CC[C@]43C)C2C1 (stereo partly drawn)	label 0
COc1ccc(-c2nnc(SCc3ccc(O)c4ncccc34)o2)cc1	label 0
COc1cc(/C=C/C(=O)c2ccc(N3CCN(C)CC3)cc2)ccc1F	label 0
N#C/C(=C\c1ccc(Cl)cc1Cl)C(N)=O	label 0
CN(c1ccc(Cl)cc1)S(=O)(=O)c1ccc(-c2cnc(C3CC3)o2)cc1	label 0
CC(=O)Nc1nc2c(s1)C1=CC[C@H]3[C@@H]4CC[C@H](C(C)=O)[C@@]4(C)CC[C@@H]3[C@@]1(C)CC2	label 0
COc1ccc(-c2cc(-c3ccc(Cl)cc3)nc3nc(N)nn23)cc1	label 0
COC(=O)c1nc(-c2ccc(C)cc2)oc1S(=O)(=O)N1CCN(c2oc(-c3ccccc3)nc2C#N)CC1	label 0
O=c1oc2ccc(-c3ccc(F)cc3F)cc2c(=O)n1-c1cccc(C(F)(F)F)c1	label 1

---

Tested on: SW-620 colon
Protocol Text: NCI-60 one-dose screen, 48 h (100 = growth as untreated, 0 = no growth, -100 = all killed)
Assay Setup: 10 µM unless noted
About 83,000 compounds went through this panel and 20% of them were active in at least one assay; those are over-represented in the sample as a whole.
Output schema: class label derived from growth. Mapping: low (below 10%), mid (10% to below 30%), high (30% or more)

Compound	Target	Class Assignment
CC1CCc2c(sc3nc(SCC(=O)N/N=C/c4cccc(O)c4O)n(-c4ccccc4)c(=O)c23)C1 (centres undefined)	SW-620 colon	high
C/C(=N\NC(=O)CSc1nc2sc3c(c2c(=O)n1-c1ccccc1)CCC(C)C3)c1ccc(Cl)cc1 (centres undefined)	SW-620 colon	high
Cc1cc(Cl)cc(NS(=O)(=O)c2ccc(-c3cnc(C4CC4)o3)cc2)c1	SW-620 colon	mid
Cc1nn(-c2ccccc2)cc1/C=N/Nc1nc(Nc2ccccc2)nc(Nc2ccc(S(N)(=O)=O)cc2)n1	SW-620 colon	low
O=C(/C=C1\C=CN(CCCCCCF)c2ccccc21)n1ccc2ccccc21	SW-620 colon	high
CCCCCCNC(=O)Oc1ccc(/C(=C(/C)c2ccccc2)c2ccc(OCCN(C)C)cc2)cc1	SW-620 colon	mid
CC(=O)Nc1ccc(NC(=O)Nc2cccc(-c3nc(-c4ccc(NC(=O)c5cccnc5)cc4Cl)no3)c2)cc1C(F)(F)F	SW-620 colon	low
O=C(NCCCNc1cc(-c2cn(-c3ccccc3)nc2-c2cccc(O)c2)ccn1)Nc1ccc(F)cc1	SW-620 colon	mid

---

Form field: growth (one value per entry).
Test system: HCT-116 colon
Protocol Text: NCI-60 one-dose screen, 48 h (100 = growth as untreated, 0 = no growth, -100 = all killed)
Assay Setup: 10 µM unless noted
This is part of a sample that, as a whole, favours compounds with a hit. Of some 83,000 tested, about 20% had one in any assay. The source made the active and inactive calls. The calls were made as follows: active = growth percent below 10; inactive = the rest.
Endpoint: growth

Compound	Endpoint	Result
CC(=O)NC(C)(C)C(=O)N1CCC[C@H]1C(=O)NC(C)(C)C(=O)N[C@@H](C)C(=O)NC(C)(C)C(=O)NC(C)(C)C(=O)N[C@@H](CCC(N)=O)C(=O)NC(C)(C)C(=O)N[C@H](C(=O)NC(C)(C)C(=O)NCC(=O)N[C@@H](CC(C)C)C(=O)NC(C)(C)C(=O)N1CCC[C@H]1C(=O)N[C@H](C(=O)NC(C)(C)C(=O)NC(C)(C)C(=O)N[C@@H](CCC(N)=O)C(=O)N[C@@H](CCC(N)=O)C(=O)N[C@H](CO)Cc1ccccc1)C(C)C)C(C)C	growth	24.1% [4.25 µM] (inactive)
CC1CCN(S(=O)(=O)c2ncsc2-c2ccccc2)CC1	growth	87.5% (inactive)
CC(C)=CCc1c2c(c(O)c3c1O[C@]14C(=C[C@@H]5C[C@H]1C(C)(C)O[C@@]4(C/C=C(/C)C(=O)O)C5=O)C3=O)CC(O)C(C)(C)O2 (some centres not stated)	growth	-69.8% (active)
Nc1ccc(-c2nnc(SCc3ccc(O)c4ncccc34)n2-c2ccccc2)cc1	growth	8.87% (active)
COc1cc(NC2=C(Cl)C(=O)c3nc(C)ccc3C2=O)cc(OC)c1	growth	-97.8% (active)
C=C1C(=O)O[C@@H]2C[C@@H](C)/C=C\C(=O)[C@](C)(OC(C)=O)C[C@H](OC(=O)/C(C)=C\C)[C@@H]12	growth	-70.3% (active)
O=C(Nc1cccc(Cl)c1)Nc1nc2ccc(-c3cccc4ccccc34)cc2s1	growth	27% (inactive)

---

Test system: HCT-15 colon
Protocol Text: NCI-60 one-dose screen, 48 h
Assay Setup: 10 µM unless noted
The panel holds about 83,000 compounds, 20% with a hit somewhere; the sample as a whole holds those more often. The source made the active and inactive calls. Rule for the calls: active = growth percent below 10; inactive = the rest.
Possible outcomes: active, inactive

Structure String	Class Assignment
COc1cc2cc(Oc3ccc(NC(=O)c4cccc(C(F)(F)F)c4)cc3)c(C)nc2cc1OCCN(C)C	active
COc1cc2cc(Oc3ccc(NC(=O)Nc4cccc(C(F)(F)F)c4)cc3)c(C)nc2cc1OCCN(C)C	inactive
N#C/C(=C\c1ccc(-c2ccc(F)cc2)o1)C(=O)Nc1ncc(Cc2ccc(Cl)cc2Cl)s1	active
CCN1C/C(=N\S(=O)(=O)c2ccccc2)N(CC)C1=S	inactive
COc1ccc2c(C3=C(c4c[nH]c5ccccc45)C(=O)N(O)C3=O)coc2c1	inactive

---

Tested on: SW-620 colon
Protocol Text: NCI-60 one-dose screen, 48 h
Assay Setup: 10 µM unless noted
The panel holds about 83,000 compounds, 20% with a hit somewhere; the sample as a whole holds those more often. The source made the active and inactive calls. The calls were made as follows: active = growth percent below 10; inactive = the rest.
Possible outcomes: active, inactive

Compound	Class Assignment
CC(C)=CCC[C@](C)(O)[C@H]1CC[C@]2(C)[C@@H]1CC[C@@H]1[C@@]3(C)CCC(NC(=O)c4ccccc4C(=O)O)C(C)(C)[C@@H]3CC[C@]12C (some centres not stated)	inactive
O=c1c2c(O)cccc2oc2c3c(cc(O)c12)O[C@H]1OC=C[C@@H]31	inactive
C=C1C(=O)O[C@@H]2C[C@@H](C)/C=C\C(=O)[C@](C)(OC(C)=O)C[C@H](OC(=O)/C(C)=C\C)[C@@H]12	active
CCOC(=O)c1c(NC(=O)c2ccc(F)cc2F)sc2c1CCC(=O)C2	inactive
CCOC(=O)c1c(NCC(=O)Nc2cccc([N+](=O)[O-])c2)sc2c1CCCC2	active
Cn1nc(Nc2ccccc2)c(C(=O)NN)c1N	inactive
CC(=O)Nc1nc2c(s1)C1=CC[C@H]3[C@@H]4CC[C@H](C(C)=O)[C@@]4(C)CC[C@@H]3[C@@]1(C)CC2	inactive
CCCCCCNC(=O)Oc1ccc(/C(=C(/C)c2ccc(OC)cc2)c2ccc(OCCN3CCCC3)cc2)cc1	inactive
COc1cc2c3c(n(CCCNCC4CC4)c(=O)c2cc1OC)-c1cc2c(cc1C3=O)OCO2	active
O=C1c2c(c3c4ccc(Br)cc4oc3c3[nH]c4ccccc4c23)C(=O)N1CCO	inactive
CCCCCc1ccc(S(=O)(=O)N(C(C)=O)c2cccc(-c3csc(N(CCN4CCN(C)CC4)C(C)=O)n3)c2)cc1	active
CCN1C(=O)N(CC)C2SC(N/N=C/C=C/c3ccccc3OC)=NC21 (configuration not stated)	inactive
C=CCn1c(SCC(=O)Nc2cccc(C(=O)/C=C/c3ccc(Cl)cc3)c2)nc2ccccc2c1=O	inactive
O=C(NCCCNc1cc(-c2cn(-c3ccccc3)nc2-c2cccc(O)c2)ccn1)Nc1cc(C(F)(F)F)cc(C(F)(F)F)c1	inactive
C#C[C@]1(O)CC[C@H]2[C@@H]3CC=C4c5sc(Nc6ccc(OC)nc6)nc5CC[C@]4(C)[C@H]3CC[C@@]21C	active
COc1cc2c3c(n(CCCN4CCCC4)c(=O)c2cc1OC)-c1cc2c(cc1C3=O)OCO2	active
NS(=O)(=O)c1ccc(Nc2nc(N/N=C/c3ccc(F)cc3)nc(Nc3ccccc3)n2)cc1	inactive
